# Kd per record follows
- Study target: T1, phosphorylated, GFP-tagged HK MtrB (cytosolic catalytic domain) (M. tuberculosis, UniProt P9WGK9 234-567)
- T1 construct: also called MtrB~P; P~MtrB-GFP
- T1 sequence: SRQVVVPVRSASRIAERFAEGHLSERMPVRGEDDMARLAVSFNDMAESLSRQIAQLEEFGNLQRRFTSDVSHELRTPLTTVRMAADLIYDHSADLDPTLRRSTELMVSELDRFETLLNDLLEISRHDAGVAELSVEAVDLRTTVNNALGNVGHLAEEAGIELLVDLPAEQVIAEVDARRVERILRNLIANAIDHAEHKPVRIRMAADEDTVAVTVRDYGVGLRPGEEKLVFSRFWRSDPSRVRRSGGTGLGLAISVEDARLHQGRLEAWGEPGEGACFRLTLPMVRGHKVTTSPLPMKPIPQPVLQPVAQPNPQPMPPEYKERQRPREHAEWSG
- Assay notes: MST
- Condition summary: both partners purified
Expressed in µM, but write only the number.

response regulator TcrX (natural protein) MRRADGQPVTVLVVDDEPVLAEMVSMALRYEGWNITTAGDGSSAIAAARRQRPDVVVLDVMLPDMSGLDVLHKLRSENPGLPVLLLTAKDAVEDRIAGLTAGGDDYVTKPFSIEEVVLRLRALLRRTGVTTVDSGAQLVVGDLVLDEDSHEVMRAGEPVSLTSTEFELLRFMMHNSKRVLSKAQILDRVWSYDFGGRSNIVELYISYLRKKIDNGREPMIHTLRGAGYVLKPAR; 0.082
response regulator NarL (natural protein, also called non-cognate RR NarL) MSNPQPEKVRVVVGDDHPLFREGVVRALSLSGSVNVVGEADDGAAALELIKAHLPDVALLDYRMPGMDGAQVAAAVRSYELPTRVLLISAHDEPAIVYQALQQGAAGFLLKDSTRTEIVKAVLDCAKGRDVVAPSLVGGLAGEIRQRAAPVAPVLSAREREVLNRIACGQSIPAIAAELYVAPSTVKTHVQRLYEKLGVSDRAAAVAEAMRQRLLD; 0.083
response regulator MtrA (natural protein, also called cognate RR MtrA) MDTMRQRILVVDDDASLAEMLTIVLRGEGFDTAVIGDGTQALTAVRELRPDLVLLDLMLPGMNGIDVCRVLRADSGVPIVMLTAKTDTVDVVLGLESGADDYIMKPFKPKELVARVRARLRRNDDEPAEMLSIADVEIDVPAHKVTRNGEQISLTPLEFDLLVALARKPRQVFTRDVLLEQVWGYRHPADTRLVNVHVQRLRAKVEKDPENPTVVLTVRGVGYKAGPP; 0.444
response regulator TcrA (natural protein) MADETTMRAGRGPGRACGRVSGVRILVVEDEPKMTALLARALTEEGHTVDTVADGRHAVAAVDGGDYDAVVLDVMLPGIDGFEVCARLRRQRVWTPVLMLTARGAVTDRIAGLDGGADDYLTKPFNLDELFARLRALSRRGPIPRPPTLEAGDLRLDPSEHRVWRADTEIRLSHKEFTLLEALIRRPGIVHTRAQLLERCWDAAYEARSNIVDVYIRYLRDKIDRPFGVTSLETIRGAGYRLRKDGGRHALPR; 3.07

Switching to the query record.
Task item: What value of Kd has been recorded for this entry: response regulator KdpE (natural protein) MTLVLVIDDEPQILRALRINLTVRGYQVITASTGAGALRAAAEHPPDVVILDLGLPDMSGIDVLGGLRGWLTAPVIVLSARTDSSDKVQALDAGADDYVTKPFGMDEFLARLRAAVRRNTAAAELEQPVIETDSFTVDLAGKKVIKDGAEVHLTPTEWGMLEMLARNRGKLVGRGELLKEVWGPAYATETHYLRVYLAQLRRKLEDDPSHPKHLLTESGMGYRFEA
Reply: 0.868

FYI, the data here is from paper PMC10368727.
